Data provenance is paper PMC7436059.

# target.entity: BSA (Bos taurus)
# Construct: purchased Asbio
# Sequence (P02769 25-607): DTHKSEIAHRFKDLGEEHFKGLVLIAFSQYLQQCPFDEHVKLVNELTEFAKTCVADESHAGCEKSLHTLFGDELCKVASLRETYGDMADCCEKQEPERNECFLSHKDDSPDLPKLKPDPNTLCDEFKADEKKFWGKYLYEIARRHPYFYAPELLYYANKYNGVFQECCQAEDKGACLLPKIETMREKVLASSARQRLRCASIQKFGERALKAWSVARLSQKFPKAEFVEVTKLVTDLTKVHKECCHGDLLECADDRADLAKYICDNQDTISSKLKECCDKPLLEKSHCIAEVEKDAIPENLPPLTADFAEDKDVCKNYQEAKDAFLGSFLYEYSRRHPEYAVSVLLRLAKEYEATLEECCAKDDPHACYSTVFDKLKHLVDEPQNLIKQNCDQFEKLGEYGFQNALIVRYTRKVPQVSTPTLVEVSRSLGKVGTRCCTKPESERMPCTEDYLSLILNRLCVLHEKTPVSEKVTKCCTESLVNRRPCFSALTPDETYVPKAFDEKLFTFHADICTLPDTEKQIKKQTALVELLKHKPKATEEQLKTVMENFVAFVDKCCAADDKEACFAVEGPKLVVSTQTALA
# experiment.description: BSA fluorescence quenching titration (Stern-Volmer, Scatchard)
# Format: binding, bovine
# assay.setup: 1.6 μM BSA, Tris-HCl buffer; τ0 = 10^−8 s
observable: Kq (quenching rate constant) (M⁻¹ s⁻¹)
Lab book: enter the figure in M⁻¹ s⁻¹, no units written.

Please look at CS(=O)(=O)c1ccc(-c2cc(-c3ccccn3)nc(-c3ccccn3)c2)cc1.[Br][Zn][Br] [Compound 1, [ZnBr2L^1]] and tell me its recorded Kq (quenching rate constant) on BSA (Bos taurus).
1.76e+13

Please look at Cc1ccc(-c2cc(-c3ccccn3)nc(-c3ccccn3)c2)cc1.[Br][Zn][Br] [Compound 5, [ZnBr2L^3]] and tell me its recorded Kq (quenching rate constant) on BSA (Bos taurus).
4.63e+12

Please look at COc1ccc(-c2cc(-c3ccccn3)nc(-c3ccccn3)c2)cc1.[Br][Zn][Br] [Compound 3, [ZnBr2L^2]] and tell me its recorded Kq (quenching rate constant) on BSA (Bos taurus).
1.15e+13

Please look at COc1ccc(-c2cc(-c3ccccn3)nc(-c3ccccn3)c2)cc1.[I][Zn][I] [Compound 4, [ZnI2L^2]] and tell me its recorded Kq (quenching rate constant) on BSA (Bos taurus).
1.63e+13

Please look at CS(=O)(=O)c1ccc(-c2cc(-c3ccccn3)nc(-c3ccccn3)c2)cc1.[I][Zn][I] [Compound 2, [ZnI2L^1]] and tell me its recorded Kq (quenching rate constant) on BSA (Bos taurus).
1.76e+13

Further cases:
Please look at Cc1ccc(-c2cc(-c3ccccn3)nc(-c3ccccn3)c2)cc1.[I][Zn][I] [Compound 6, [ZnI2L^3]] and tell me its recorded Kq (quenching rate constant) on BSA (Bos taurus).
7.67e+12
